target: thromboxane synthase (Homo sapiens, UniProt P24557); construct: containing human platelet microsomes (50 µg protein/ml) and the test compound; test: Test of thromboxane synthase inhibitory action (production of thromboxane B2 in human platelet microsomes); details: suppressing production of thromboxane (thromboxane B2), prostaglandin H2, EIA, read-out: TxSI IC50
Sequence (P24557 whole entry): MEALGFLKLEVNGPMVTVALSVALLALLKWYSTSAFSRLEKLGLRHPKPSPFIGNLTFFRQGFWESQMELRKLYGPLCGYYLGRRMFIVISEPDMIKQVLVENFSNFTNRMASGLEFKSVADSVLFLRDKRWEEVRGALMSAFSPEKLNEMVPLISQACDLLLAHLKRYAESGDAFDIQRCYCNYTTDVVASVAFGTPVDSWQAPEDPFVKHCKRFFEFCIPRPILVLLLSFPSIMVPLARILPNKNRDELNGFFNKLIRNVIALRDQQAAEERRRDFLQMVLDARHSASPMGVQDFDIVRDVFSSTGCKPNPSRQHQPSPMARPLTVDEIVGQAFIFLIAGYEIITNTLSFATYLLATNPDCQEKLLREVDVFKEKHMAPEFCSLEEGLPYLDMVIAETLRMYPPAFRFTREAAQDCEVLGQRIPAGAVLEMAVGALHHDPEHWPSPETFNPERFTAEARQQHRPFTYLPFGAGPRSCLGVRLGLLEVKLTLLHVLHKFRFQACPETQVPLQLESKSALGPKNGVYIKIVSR
Entries annotated with measured IC50
API: value field is a number in nM; no unit string.

> print(dat)
                                   compound  measurement.unit  reported.value
1  NC(=O)N(O)Cc1cccc(OC(c2ccccc2)c2cccnc2)c1 (centres unmarked)                nM              60
2  ON(CCCC(c1ccccc1)c1cccnc1)C(=S)NC1CCCCC1 (centres unmarked)                nM             0.9
3  CCNC(=O)N(O)CCCCCC(c1ccccc1)c1cccnc1 (centres unmarked)                nM               6
4  CC(CCCCCC(c1ccccc1)c1cccnc1)N(O)C(N)=O (centres unmarked)                nM               7

Moving on to the next compound.
Problem: Could you tell me which IC50 is on file for NC(=O)N(O)CCCCCCCCCC(c1ccccc1)c1cccnc1 (centres unmarked) ?
Solution: 10
